Assay: in vivo
Conditions: male, Sprague-Dawley, rat, in vivo, po, t1/2z
readout: half-life (h)
Value expressed in h; do not type the unit.

### Prompt Look at this molecule and give its reported half-life. CCCCNC(=O)NS(=O)(=O)c1ccc(C)cc1 [Tolbutamide]
### Response 12.7

---

Biological target: UniProtKB P08683
Sequence (P08683 1-500): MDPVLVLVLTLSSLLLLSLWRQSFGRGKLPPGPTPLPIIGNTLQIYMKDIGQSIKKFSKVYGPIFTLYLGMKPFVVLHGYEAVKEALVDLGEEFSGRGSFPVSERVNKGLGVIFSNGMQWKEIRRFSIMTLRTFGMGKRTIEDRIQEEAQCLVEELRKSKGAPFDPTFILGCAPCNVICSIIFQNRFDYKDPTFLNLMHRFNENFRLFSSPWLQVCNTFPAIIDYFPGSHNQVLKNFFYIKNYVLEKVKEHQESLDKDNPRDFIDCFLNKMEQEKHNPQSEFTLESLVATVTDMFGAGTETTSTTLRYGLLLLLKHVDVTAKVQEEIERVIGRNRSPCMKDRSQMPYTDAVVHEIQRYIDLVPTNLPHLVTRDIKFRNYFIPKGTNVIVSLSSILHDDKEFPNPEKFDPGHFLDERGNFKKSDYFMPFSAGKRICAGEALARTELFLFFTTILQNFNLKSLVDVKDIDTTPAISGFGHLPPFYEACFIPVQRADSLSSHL
readout: pKi
Reminder that pKi is minus the log10 of a molar concentration.

### Prompt Can you look up pKi on UniProtKB P08683 for C=CC(=O)N1CCC(Oc2cc3c(Nc4ccc(Cl)c(Cl)c4F)ncnc3cc2OC)CC1 ?
### Response 4.75
